In this section we review reported pIC50 values for a set of molecules.
Target: PI3K beta (Homo sapiens, UniProt P42338)
Construct: for the full-length p110-b subunit are generated and fused by overlapping PCR; p85(iSH2) fusion partner (see partner chain) (N); His tag (C); Tn5 (Trichoplusia ni) or TiniPro insect cells
Sequence (P42338 with tags, fused parts or gaps limits assumed): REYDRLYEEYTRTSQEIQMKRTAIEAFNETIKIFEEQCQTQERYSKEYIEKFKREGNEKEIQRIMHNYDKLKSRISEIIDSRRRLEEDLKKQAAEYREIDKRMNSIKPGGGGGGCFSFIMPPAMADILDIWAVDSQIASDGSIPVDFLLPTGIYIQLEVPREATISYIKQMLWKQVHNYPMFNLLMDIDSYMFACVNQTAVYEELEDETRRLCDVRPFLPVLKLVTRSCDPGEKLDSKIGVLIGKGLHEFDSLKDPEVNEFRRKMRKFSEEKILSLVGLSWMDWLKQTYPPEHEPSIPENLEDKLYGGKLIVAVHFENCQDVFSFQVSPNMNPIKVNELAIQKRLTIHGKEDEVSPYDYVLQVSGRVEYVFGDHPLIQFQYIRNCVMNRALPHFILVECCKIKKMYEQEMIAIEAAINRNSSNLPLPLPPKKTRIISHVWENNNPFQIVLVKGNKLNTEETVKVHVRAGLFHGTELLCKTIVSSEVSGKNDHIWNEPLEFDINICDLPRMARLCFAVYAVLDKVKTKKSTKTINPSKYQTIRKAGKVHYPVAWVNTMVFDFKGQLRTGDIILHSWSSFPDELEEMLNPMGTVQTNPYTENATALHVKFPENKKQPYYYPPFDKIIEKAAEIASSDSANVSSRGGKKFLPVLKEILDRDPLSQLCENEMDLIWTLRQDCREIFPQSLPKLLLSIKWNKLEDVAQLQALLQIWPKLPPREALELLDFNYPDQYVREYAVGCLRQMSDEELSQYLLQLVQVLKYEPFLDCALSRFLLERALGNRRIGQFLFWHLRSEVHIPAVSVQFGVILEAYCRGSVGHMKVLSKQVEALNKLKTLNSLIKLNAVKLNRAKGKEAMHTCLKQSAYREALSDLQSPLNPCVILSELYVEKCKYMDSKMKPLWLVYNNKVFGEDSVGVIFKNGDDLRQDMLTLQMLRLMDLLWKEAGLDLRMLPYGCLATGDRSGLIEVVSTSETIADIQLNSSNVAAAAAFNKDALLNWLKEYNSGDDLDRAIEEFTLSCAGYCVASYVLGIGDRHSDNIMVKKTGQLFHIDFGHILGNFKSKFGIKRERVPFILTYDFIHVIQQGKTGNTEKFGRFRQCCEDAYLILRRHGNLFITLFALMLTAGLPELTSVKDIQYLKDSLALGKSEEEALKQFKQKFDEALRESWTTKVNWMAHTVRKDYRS
Assay: PI3K beta kinase assay (Kinase-Glo luminescence)
Procedure: In a more preferred assay, the kinase reaction is performed in a final volume of 10 μL per well of a low volume non binding CORNING, 384 well black plate (Cat. No. #3676). The final concentrations of ATP and phosphatidyl inositol (PI) in the assay are 1 μM and 10 μg/mL respectively. […] IC50 is determined by a four parameter curve fitting routine that comes along with “excel fit”. […] Alternatively, IC50 values are calculated using idbsXLfit model 204, which is a 4 parameter logistic model.
Keep it numeric: pIC50 is minus log10 of the concentration in mol/L.

Field: example entries. Status: answers known.
COc1ccc(-c2ccc3ncc4c(c3n2)n(-c2cn(C)nc2C)c(=O)n4C)cc1OC
7.17
Cc1nn(C)cc1-n1c(=O)n(C)c2cnc3ccc(-c4cncc(N(C)S(C)(=O)=O)c4)cc3c21
7.03
CCNc1cncc(-c2ccc3ncc4c(c3c2)n(-c2cn(C)nc2C)c(=O)n4C)c1
7.66
Cc1nn(C)cc1-n1c(=O)n(C)c2cnc3ccc(-c4cccc5c4OC(F)(F)O5)cc3c21
7.43

PI3K beta (Homo sapiens, UniProt P42338) pIC50 of CNc1cc(-c2ccc3ncc4c(c3c2)n(-c2cn(C(C)C)nc2C)c(=O)n4C)cnc1CO is 6.74

PI3K beta (Homo sapiens, UniProt P42338) pIC50 of Cc1nn(C)cc1-n1c(=O)n(C)c2cnc3ccc(-c4cnc5[nH]ccc5c4)cc3c21 is 7.49

PI3K beta (Homo sapiens, UniProt P42338) pIC50 of Cc1nn(C)cc1-n1c(=O)n(C)c2cnc3ccc(-c4cncc(N5CCOCC5)c4)cc3c21 is 6.74

PI3K beta (Homo sapiens, UniProt P42338) pIC50 of COc1cc(-c2ccc3ncc4c(c3c2)n(-c2cn(C(C)C)nc2C)c(=O)n4C)cnc1CO is 6.49

PI3K beta (Homo sapiens, UniProt P42338) pIC50 of COc1ccc(-c2ccc3ncc4c(c3c2)n(-c2cn(C)nc2Cl)c(=O)n4C)cc1OC is 8.22

PI3K beta (Homo sapiens, UniProt P42338) pIC50 of Cc1nn(C)cc1-n1c(=O)n(C)c2cnc3ccc(-c4cnc(N)c(Cl)c4)cc3c21 is 7.46
